Molecular target: Wnt-responsive promoter (TCF/LEF)
Test: Wnt-dependent luciferase reporter assay
pEC50: −log10 of the molar value. Where a SMILES comes first, the peptide text is derived from it.
readout: pEC50

Query (compound): CC[C@H](C)[C@H](NC(=O)[C@H](CC(C)C)NC(=O)[C@H](Cc1ccccc1)NC(=O)[C@H](Cc1c[nH]c2ccccc12)NC(=O)[C@H](CCSC)NC(=O)[C@H](CCCNC(=N)N)NC(=O)[C@H](CO)NC(=O)[C@@H](N)CCCCN)C(=O)N[C@@H](CO)C(=O)N[C@@H](Cc1ccccc1)C(=O)N[C@@H](Cc1c[nH]c2ccccc12)C(N)=O [compound 83] (H-KSRMWFLISFW-NH2) ; field requested: pEC50
< 4.52

Query (compound): CC[C@H](C)[C@H](NC(=O)[C@H](CC(C)C)NC(=O)[C@H](Cc1ccccc1)NC(=O)[C@H](Cc1c[nH]c2ccccc12)NC(=O)[C@H](Cc1c[nH]c2ccccc12)NC(=O)[C@H](CCCNC(=N)N)NC(=O)[C@H](CO)NC(=O)[C@@H](N)CCCCN)C(=O)N[C@@H](CO)C(=O)N[C@@H](Cc1ccccc1)C(=O)N[C@@H](Cc1c[nH]c2ccccc12)C(N)=O [compound 95] (H-KSRWWFLISFW-NH2) ; field requested: pEC50
< 4.52

Query (compound): CC[C@H](C)[C@H](NC(=O)[C@H](CC(C)C)NC(=O)[C@@H](NC(=O)C(C)(Cc1c[nH]c2ccccc12)NC(=O)[C@@H](N)CCSC)[C@@H](C)CC)C(=O)N[C@@H](CS)C(=O)N[C@@H](Cc1ccccc1)C(=O)N[C@@H](Cc1c[nH]c2ccccc12)C(=O)NCC(=O)O (stereo partly drawn) [compound 132] (HELM PEPTIDE1{M.[CC(Cc1c[nH]c2ccccc12)(N[*:1])C(=O)[*:2]].I.L.I.C.F.W.G}$$$$V2.0) ; field requested: pEC50
4.82 to 5.12

====

Listed next: entries and their corresponding EC50.
Target: Wnt-responsive promoter (TCF/LEF)
Assay: Wnt-dependent luciferase reporter assay
Procedure: The luciferase reporter assay is commonly used as a tool to study gene expression at the transcriptional level. […] Luminescence was recorded to determine the peptides with the highest β-catenin-inhibiting activity. EC50 values were calculated based on the inhibition of luminescence and expressed as concentration (uM) in Table 5. Peptides were assessed for their ability to inhibit Wnt signaling. […]
Where a SMILES comes first, the peptide text is derived from it.

Example cases with answers are listed next.
INSERT INTO measurements (compound, measured) VALUES
  ('CC[C@H](C)[C@@H]1NC(=O)[C@H](CC(C)C)NC(=O)[C@H](Cc2ccccc2)NC(=O)[C@H](Cc2c[nH]c3ccccc23)NC(=O)[C@@H](N)CCCCNC(=O)CC[C@@H](C(=O)O)NC(=O)[C@H](Cc2c[nH]c3ccccc23)NC(=O)[C@H](Cc2ccccc2)NC(=O)[C@H](CS)NC1=O [compound 179] (HELM PEPTIDE1{K.W.F.L.I.C.F.W.E}$PEPTIDE1,PEPTIDE1,1:R3-9:R3$$$V2.0)', '< 7.5 µM'),
  ('CC[C@H](C)[C@H](NC(=O)[C@H](CC(C)C)NC(=O)[C@H](Cc1ccccc1)NC(=O)[C@H](Cc1c[nH]c2ccccc12)NC(=O)[C@H](Cc1c[nH]cn1)NC(=O)[C@H](CCCNC(=N)N)NC(=O)[C@H](CO)NC(=O)[C@@H](N)CCCCN)C(=O)N[C@@H](CO)C(=O)N[C@@H](Cc1ccccc1)C(=O)N[C@@H](Cc1c[nH]c2ccccc12)C(N)=O [compound 94] (H-KSRHWFLISFW-NH2)', '> 30 µM'),
  ('CC[C@H](C)[C@H](NC(=O)[C@H](C)NC(=O)[C@H](Cc1ccccc1)NC(=O)[C@H](Cc1c[nH]c2ccccc12)NC(=O)[C@@H](N)CCSC)C(=O)N[C@@H](CO)C(=O)N[C@@H](Cc1ccccc1)C(=O)N[C@@H](Cc1c[nH]c2ccccc12)C(=O)NCC(=O)O [compound 157] (H-MWFAISFWG-OH)', '< 7.5 µM'),
  ('CC[C@H](C)[C@@H]1NC(=O)[C@H](CC(C)C)NC(=O)[C@H]([C@@H](C)CC)NC(=O)[C@H](Cc2c[nH]c3ccccc23)NC(=O)[C@@H](N)CCCCNC(=O)C[C@@H](C(=O)O)NC(=O)[C@H](Cc2c[nH]c3ccccc23)NC(=O)[C@H](Cc2ccccc2)NC(=O)[C@H](CS)NC1=O [compound 120] (HELM PEPTIDE1{K.W.I.L.I.C.F.W.D}$PEPTIDE1,PEPTIDE1,1:R3-9:R3$$$V2.0)', '< 7.5 µM'),
  ('CC[C@H](C)[C@H](NC(=O)[C@H](CC(C)C)NC(=O)[C@H](Cc1ccccc1)NC(=O)[C@H](CC(C)C)NC(=O)[C@H](CCSC)NC(=O)[C@H](CCCNC(=N)N)NC(=O)[C@H](CO)NC(=O)[C@@H](N)CCSC)C(=O)N[C@@H](CO)C(=O)N[C@@H](Cc1ccccc1)C(=O)N[C@@H](Cc1c[nH]c2ccccc12)C(=O)NCC(=O)O [compound 52] (H-MSRMLFLISFWG-OH)', '15 to 22.5 µM'),
  ('CC[C@H](C)[C@@H]1NC(=O)[C@H](CC(C)C)NC(=O)[C@H](Cc2ccccc2)NC(=O)[C@H](Cc2c[nH]c3ccccc23)NC(=O)[C@H](CCSC)NC(=O)[C@@H](N)CC(=O)NCCCC[C@@H](C(=O)NCC(=O)O)NC(=O)[C@H](Cc2c[nH]c3ccccc23)NC(=O)[C@H](Cc2ccccc2)NC(=O)[C@H](CS)NC1=O [compound 177] (HELM PEPTIDE1{D.M.W.F.L.I.C.F.W.K.G}$PEPTIDE1,PEPTIDE1,1:R3-10:R3$$$V2.0)', '7.5 to 15 µM'),
  ('CC[C@@H]1NC(=O)[C@H]([C@@H](C)CC)NC(=O)[C@H](CC(C)C)NC(=O)[C@H](CC2CCCCC2)NC(=O)[C@H](Cc2c[nH]c3ccccc23)NC(=O)[C@@H](NC(C)=O)CCCCNC(=O)C[C@@H](C(=O)O)NC(=O)[C@H](Cc2c[nH]c3ccccc23)NC(=O)[C@H](C)NC1=O [compound 261] (HELM PEPTIDE1{[ac].K.W.[Cha].L.I.[Abu].A.W.D}$PEPTIDE1,PEPTIDE1,2:R3-10:R3$$$V2.0)', '7.5 to 15 µM');

Attention now shifts to the item below.
Query (compound): CC[C@H](C)[C@H](NC(=O)[C@H](CC(C)C)NC(=O)[C@H](Cc1ccccc1)NC(=O)[C@H](Cc1c[nH]c2ccccc12)NC(=O)[C@@H](N)CCSC)C(=O)N[C@@H](CCC(N)=O)C(=O)N[C@@H](Cc1ccccc1)C(=O)N[C@@H](Cc1c[nH]c2ccccc12)C(=O)NCC(=O)O [compound 143] (H-MWFLIQFWG-OH) ; field requested: EC50
7.5 to 15 µM

====

Listed next: entries and their corresponding β-Cat FP Hill slope.
Molecular target: β-catenin (Homo sapiens, UniProt P35222)
Sequence (P35222 whole entry): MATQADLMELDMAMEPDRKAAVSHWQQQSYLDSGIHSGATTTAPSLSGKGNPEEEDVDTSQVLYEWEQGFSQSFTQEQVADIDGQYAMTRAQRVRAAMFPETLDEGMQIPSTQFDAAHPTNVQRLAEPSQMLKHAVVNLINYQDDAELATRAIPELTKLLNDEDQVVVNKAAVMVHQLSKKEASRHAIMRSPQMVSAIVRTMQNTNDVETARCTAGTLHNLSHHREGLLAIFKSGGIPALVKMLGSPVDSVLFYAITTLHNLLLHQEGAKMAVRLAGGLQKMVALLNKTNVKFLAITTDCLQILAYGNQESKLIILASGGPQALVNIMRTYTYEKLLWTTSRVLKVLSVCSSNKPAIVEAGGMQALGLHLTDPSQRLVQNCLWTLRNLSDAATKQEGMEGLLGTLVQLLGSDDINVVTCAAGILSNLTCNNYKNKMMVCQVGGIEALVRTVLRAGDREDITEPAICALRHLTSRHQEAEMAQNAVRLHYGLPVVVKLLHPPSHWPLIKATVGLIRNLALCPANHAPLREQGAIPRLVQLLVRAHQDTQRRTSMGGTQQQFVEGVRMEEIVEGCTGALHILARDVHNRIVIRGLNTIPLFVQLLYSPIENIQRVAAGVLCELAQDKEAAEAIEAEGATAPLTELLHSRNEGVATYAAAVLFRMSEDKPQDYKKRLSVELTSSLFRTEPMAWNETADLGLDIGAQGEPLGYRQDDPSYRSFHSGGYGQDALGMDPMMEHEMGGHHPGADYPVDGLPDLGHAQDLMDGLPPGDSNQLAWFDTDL
Assay: KD50 measurement using competitive fluorescence polarization (FP) with labelled TCF4
Format: binding
Conditions: fluorescence polarization, β-catenin
Where a SMILES comes first, the peptide text is derived from it.
Give the figure by itself; no unit, no explanation.

INSERT INTO measurements (compound, readout, measured) VALUES
  ('CC[C@H](C)[C@H](NC(=O)[C@H](CC(C)C)NC(=O)[C@H](Cc1ccccc1)NC(=O)[C@H](Cc1c[nH]c2ccccc12)NC(=O)[C@@H](N)CCSC)C(=O)N[C@@H](CCC(N)=O)C(=O)N[C@@H](Cc1ccccc1)C(=O)N[C@@H](Cc1ccc(O)cc1)C(=O)NCC(=O)O [compound 149] (H-MWFLIQFYG-OH)', 'β-Cat FP Hill slope', 0.75),
  ('CC[C@H](C)[C@H](NC(=O)[C@H](CC(C)C)NC(=O)[C@@H](NC(=O)[C@H](Cc1c[nH]c2ccccc12)NC(=O)[C@@H](N)CCCCN)[C@@H](C)CC)C(=O)N[C@@H](CO)C(=O)N[C@@H](Cc1ccccc1)C(=O)N[C@@H](Cc1c[nH]c2ccccc12)C(=O)NCC(=O)O [compound 125] (H-KWILISFWG-OH)', 'β-Cat FP Hill slope', 0.7),
  ('CC[C@H](C)[C@H](NC(=O)[C@H](CC(C)C)NC(=O)[C@H](Cc1ccccc1)NC(=O)[C@H](Cc1c[nH]c2ccccc12)NC(=O)[C@H](CCSC)NC(C)=O)C(=O)N[C@@H](C)C(=O)N[C@@H](Cc1ccccc1)C(=O)N[C@@H](Cc1c[nH]c2ccccc12)C(=O)NCC(=O)O [compound 274] (Ac-MWFLIAFWG-OH)', 'β-Cat FP Hill slope', 2.2);

Query (compound): CC[C@H](C)[C@H](NC(=O)[C@H](CC(C)C)NC(=O)[C@H](Cc1ccccc1)NC(=O)[C@H](Cc1c[nH]c2ccccc12)NC(=O)[C@@H](N)CCSC)C(=O)N[C@@H](CO)C(=O)N[C@@H](Cc1ccccc1)C(=O)N[C@@H](Cc1c[nH]c2ccccc12)C(=O)O [compound 112] (H-MWFLISFW-OH) ; field requested: β-Cat FP Hill slope
1.82

Query (compound): CC[C@H](C)[C@@H]1NC(=O)[C@H](CC(C)C)NC(=O)[C@H](C2CCCCC2)NC(=O)[C@H](Cc2c[nH]c3ccccc23)NC(=O)[C@@H](N)CCCCNC(=O)C[C@@H](C(=O)O)NC(=O)[C@H](Cc2c[nH]c3ccccc23)NC(=O)[C@H](C)NC(=O)[C@H](CO)NC1=O [compound 204] (HELM PEPTIDE1{K.W.[O=C([C@@H](N[*:1])C1CCCCC1)[*:2]].L.I.S.A.W.D}$PEPTIDE1,PEPTIDE1,1:R3-9:R3$$$V2.0) ; field requested: β-Cat FP Hill slope
0.74

Query (compound): CC[C@H](C)[C@@H]1NC(=O)[C@H](CC(C)C)NC(=O)[C@H]([C@@H](C)CC)NC(=O)[C@H](Cc2c[nH]c3ccccc23)NC(=O)[C@@H](N)CCCCNC(=O)CC[C@@H](C(=O)O)NC(=O)[C@H](Cc2c[nH]c3ccccc23)NC(=O)[C@H](C)NC(=O)[C@H](CO)NC1=O [compound 184] (HELM PEPTIDE1{K.W.I.L.I.S.A.W.E}$PEPTIDE1,PEPTIDE1,1:R3-9:R3$$$V2.0) ; field requested: β-Cat FP Hill slope
0.7
